target: PIP4K2A (Homo sapiens, UniProt P48426); assay: Kinase Assay PIP4K2 A (Table 2); type: biochemical; parameters: 4 nM PIP4K2A (full length protein, SignalChem); purchased SignalChem; settings: compounds listed under IC50 bins
pIC50: −log10 of the molar value.
I'd be grateful if you could share measured pIC50 for these entries.

query: Respond only with pIC50 recorded for `CN(C)C(=O)c1ccc(-c2ccc(Nc3cncc(NC(=O)c4ccc5ncoc5c4)c3)nc2)cc1`
result: 7.00 to 8.00

query: Please give the documented pIC50 of `O=C1CCCN1c1ccc(-c2ccc(Nc3cncc(N4CCN(Cc5cnco5)C4=O)c3)nc2)cc1`
result: 7.00 to 8.00

query: Determine from records and report pIC50 for `CN(C)C(=O)c1cnc(-c2ccc(Nc3cccnc3)nc2)nc1`
result: < 6.00

query: Tell me pIC50 reported for `CNC(=O)c1cccc2ncc(Nc3ccc(-c4ccc(N5CCCC5=O)cc4)cn3)cc12`
result: 6.00 to 7.00

query: For `CN(C)C(=O)c1ccc(-c2ccc(Nc3cncc(NC(=O)c4ccc5c(c4)B(O)OC5)c3)nc2)cc1` , write its pIC50.
result: 7.00 to 8.00

query: Using the record for `CN(C)C(=O)c1ccc(-c2ccc(Nc3cncc(NC(=O)c4ccc(F)cc4)c3)nc2)cc1` , state its measured pIC50.
result: 7.00 to 8.00

query: Provide pIC50 value for the following compound: CC(=O)OC(C)C(=O)N1CCOc2ncc(Nc3ccc(-c4ccc(C(=O)N(C)C)cc4)cn3)cc21 (stereo not shown)
result: 7.00 to 8.00

query: Output measured pIC50 for this item: `CN(C)C/C=C/C(=O)NCCCCCC(=O)Nc1cccc(CCC(=O)Nc2cncc(Nc3ccc(-c4ccc(C(=O)N(C)C)cc4)cn3)c2)c1`
result: 6.00 to 7.00

query: Complete the entry with pIC50 for `Cc1nc(Nc2cnc3c(c2)N2C(=O)CC[C@H]2CO3)ccc1-c1ccc(N2CCCC2=O)cc1`
result: 8.00 to 9.00

query: Tell me pIC50 reported for `CN(C)C(=O)c1ccc(-c2ccc(Nc3cncc(C#N)c3)nc2)cc1`
result: 6.00 to 7.00

query: Kindly indicate its recorded pIC50. Item: `CN(C)C(=O)c1ccc(-c2ccc(Nc3cnc4c(c3)N(C(=O)C(C)(C)C)CCO4)nc2)cc1`
result: 8.00 to 9.00

query: Assign pIC50 to the following record: `Cc1cc(C(=O)N(C)C)ccc1-c1ccc(Nc2cccnc2)nc1`
result: < 6.00

query: Answer with the recorded pIC50 of `CN(C)C(=O)c1ccc(-c2ccc(Nc3cncc(N4CCOCC4=O)c3)nc2)cc1` only.
result: 6.00 to 7.00

query: Identify measured pIC50 corresponding to `Cc1cc(N2CCCC2=O)ccc1-c1ccc(Nc2cnc3c(c2)N2C(=O)CC[C@H]2CO3)nc1`
result: 7.00 to 8.00

query: Identify measured pIC50 associated with `Cc1ncc(Nc2ccc(-c3ccc(C(=O)N(C)C)cc3)cn2)cn1`
result: < 6.00

query: Identify measured pIC50 associated with `CN(C)C(=O)c1ccc(-c2ccc(Nc3cncc(N4CCNC4=O)c3)nc2)cc1`
result: 7.00 to 8.00

----------
biological target: PIP4K2B (Homo sapiens, UniProt P78356); construct: made in house; host or cells: E. coli; assay: Trans-FI P kinase assay PIP4K2B (Table 4); format: biochemical; conditions: compounds listed under IC50 bins; read-out: Trans-FI P kinase assays: PIP4K2B IC50
Sequence (P78356 whole entry, species assumed): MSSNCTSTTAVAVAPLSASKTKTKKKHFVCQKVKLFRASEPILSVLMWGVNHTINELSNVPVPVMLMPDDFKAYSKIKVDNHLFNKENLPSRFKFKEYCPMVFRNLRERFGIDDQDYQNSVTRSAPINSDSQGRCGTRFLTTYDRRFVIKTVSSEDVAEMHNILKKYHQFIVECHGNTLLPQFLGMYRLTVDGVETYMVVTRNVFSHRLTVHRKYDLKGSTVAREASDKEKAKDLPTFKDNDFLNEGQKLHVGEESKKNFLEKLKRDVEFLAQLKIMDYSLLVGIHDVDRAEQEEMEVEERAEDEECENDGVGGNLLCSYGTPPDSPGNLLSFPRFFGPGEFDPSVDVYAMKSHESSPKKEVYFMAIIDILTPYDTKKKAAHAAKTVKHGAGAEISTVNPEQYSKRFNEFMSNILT
Outcome Measure: IC50

query: Give me measured IC50, please, for this compound: `CN(C)C(=O)c1ccc(-c2ccc(Nc3cncc(NC(=O)c4ccccn4)c3)nc2)cc1`
result: 10 to 100 nM

query: Supply recorded IC50 for `CN(C)C/C=C/C(=O)N1CCC(C(=O)Nc2cccc(CCC(=O)Nc3cncc(Nc4ccc(-c5ccc(C(=O)N(C)C)cc5)cn4)c3)c2)CC1` here.
result: > 1000 nM

query: Indicate the recorded IC50 value for this compound: `Cc1cc(-c2ccc(N3CCCC3=O)cc2)cnc1Nc1cnc2c(c1)N1C(=O)CC[C@H]1CO2`
result: > 1000 nM

query: Read the entry `CN(C)C/C=C/C(=O)NCC(=O)Nc1ccc(CN2CCN(c3cncc(Nc4ccc(-c5ccc(N6CCCC6=O)cc5)cn4)c3)C2=O)cc1` and write its reported IC50.
result: 10 to 100 nM

query: Quickly give me recorded IC50 for `O=C1CCCN1c1ccc(-c2ccc(Nc3cnc4c(c3)N3C(=O)OC[C@H]3CO4)nc2)cc1`
result: 10 to 100 nM

query: Report measured IC50; entry is `CN(C)C(=O)c1cnc(-c2ccc(Nc3cccnc3)nc2)nc1`
result: > 1000 nM

----------
Target: PIP4K2A (Homo sapiens, UniProt P48426)
Sequence (P48426 1-406): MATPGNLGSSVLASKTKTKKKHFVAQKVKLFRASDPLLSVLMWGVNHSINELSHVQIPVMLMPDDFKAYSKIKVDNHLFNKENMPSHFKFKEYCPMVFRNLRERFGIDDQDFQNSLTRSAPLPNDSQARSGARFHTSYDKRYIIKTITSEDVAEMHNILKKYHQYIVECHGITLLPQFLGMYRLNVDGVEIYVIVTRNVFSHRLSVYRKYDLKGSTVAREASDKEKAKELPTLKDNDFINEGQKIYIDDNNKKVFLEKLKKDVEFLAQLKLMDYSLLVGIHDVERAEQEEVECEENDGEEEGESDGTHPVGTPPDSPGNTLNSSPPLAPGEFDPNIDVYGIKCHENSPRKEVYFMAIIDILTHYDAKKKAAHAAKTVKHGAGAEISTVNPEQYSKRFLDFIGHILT
Test: Kinase Assay PIP4K2 A (Table 2)
Type: biochemical
Design: 4 nM PIP4K2A (full length protein, SignalChem); purchased SignalChem
Details: compounds listed under IC50 bins
pIC50: −log10 of the molar value.
Field: pIC50. Provide a value for each of the molecules that follow.

query: In one line, give reported pIC50 of the entry CN(C)C(=O)C1CC=C(c2ccc(Nc3cccnc3)nc2)CC1 (stereo not shown) .
result: < 6.00

query: For the molecule `CN(C)C(=O)c1ccc(-c2ccc(Nc3cncc(N4CCN(Cc5cccc(NC(=O)CCc6cccc(N)c6)c5)C4=O)c3)nc2)cc1` , give its measured pIC50 value.
result: 8.00 to 9.00

query: Return value of pIC50 for input `CC1(C)C[C@H]2COc3ncc(Nc4ccc(-c5ccc(N6CCCC6=O)c(F)c5)cn4)cc3N2C1=O` , no commentary.
result: 8.00 to 9.00

query: Identify measured pIC50 associated with `CN(C)C/C=C/C(=O)NCC(=O)Nc1ccc(CN2CCN(c3cncc(Nc4ccc(-c5ccc(C(=O)N(C)C)cc5)cn4)c3)C2=O)cc1`
result: < 6.00

----------
Molecular target: PIP4K2A (Homo sapiens, UniProt P48426)
Assay: ADP-glo kinase assay PIP4K 2A (Table 3)
Format: biochemical
Parameters: made in house; host or cells: E. coli
Conditions: compounds listed under IC50 bins
Experimental: Dilution series of the compounds were prepared in DMSO at 100 times the final assay concentration (n1=n0/3 in 10 points). […] Then 3 μL of a solution containing 60 μM ATP (Promega) in assay buffer was added to the wells containing compound and enzyme and mixing was performed by pipetting several times. […] The reaction was incubated at room temperature for 40 minutes before the luminescence was measured in a in a Victor 3V 1420 multilabel counter (Perkin Elmer). […]
Outcome Measure: IC50

query: Tell me IC50 of `CN(C)CC(=O)Nc1cncc(Nc2ccc(-c3ccc(C(=O)N(C)C)cc3)cn2)c1` when tested on PIP4K2A (Homo sapiens, UniProt P48426).
result: 0.1 to 1 µM

query: State the measured IC50 (PIP4K2A (Homo sapiens, UniProt P48426)) of CC1C[C@H]2COc3ncc(Nc4ccc(-c5ccc(N6CCCC6=O)c(F)c5)cn4)cc3N2C1=O (stereo partly shown)
result: 0.001 to 0.01 µM

query: State IC50 (PIP4K2A (Homo sapiens, UniProt P48426)) of `O=C([C@@H]1CCOC1)N1CCN(c2cncc(Nc3ccc(-c4ccc(N5CCCC5=O)cc4)cn3)c2)CC1` .
result: 0.1 to 1 µM

query: Enter recorded IC50 with PIP4K2A (Homo sapiens, UniProt P48426) for `CN(C)C/C=C/C(=O)NCCCCCC(=O)Nc1cccc(CCC(=O)Nc2cncc(Nc3ccc(-c4ccc(C(=O)N(C)C)cc4)cn3)c2)c1` here.
result: 0.1 to 1 µM

query: Name the recorded IC50 of CN(C)C(=O)c1ccc(-c2ccc(Nc3cncc(N4CCC(Cc5cccc(N)c5)C4=O)c3)nc2)cc1 (stereo not shown) , assay system PIP4K2A (Homo sapiens, UniProt P48426).
result: 0.01 to 0.1 µM

query: Determine reported IC50 for `CN(C)C/C=C/C(=O)Nc1cccc(CCC(=O)Nc2ccc(CN3CCN(c4cncc(Nc5ccc(-c6ccc(C(=O)N(C)C)cc6)cn5)c4)C3=O)cc2)c1` ; test system: PIP4K2A (Homo sapiens, UniProt P48426).
result: 0.001 to 0.01 µM

query: # lookup: PIP4K2A (Homo sapiens, UniProt P48426) IC50, key = `Cc1nc(Nc2cnc3c(c2)N2C(=O)C4(CC4)C[C@H]2CO3)ncc1-c1ccc(N2CCCC2=O)cc1`
result: 0.001 to 0.01 µM
